Assay: activity coefficient (dimensionless); of the first substance listed, at infinite dilution; xn = mol fraction of the nth substance listed
Conditions: 298 K; 101.3 kPa; Liquid; Chromatography; x1 = 0

compound	activity coefficient
C=CCCC [1-pentene] + CCCCCCCC[n+]1ccn(C)c1.F[B-](F)(F)F	5.08
CCCCCCCCCC [decane] + CCCCCCCC[n+]1ccn(C)c1.F[B-](F)(F)F	36.4
C=CCCCCC [1-heptene] + CCCCCCCC[n+]1ccn(C)c1.F[B-](F)(F)F	9.76
C=CCCCCCC [oct-1-ene] + CCCCCCCC[n+]1ccn(C)c1.F[B-](F)(F)F	13.1
CCCO [propan-1-ol] + CCCCCCCC[n+]1ccn(C)c1.F[B-](F)(F)F	2.18

---

Experiment: activity coefficient (dimensionless); of the first substance listed, at infinite dilution; xn = mol fraction of the nth substance listed
Details: 298 K; 101.3 kPa; Liquid; Chromatography; x1 = 0
quantity_name: activity coefficient

molecule	measured_result
CCCCCCC [heptane] + CCCCCCCC[n+]1ccn(C)c1.F[B-](F)(F)F	16
CCCCCCCCC [nonane] + CCCCCCCC[n+]1ccn(C)c1.F[B-](F)(F)F	28.4
CCCCCO [pentan-1-ol] + CCCCCCCC[n+]1ccn(C)c1.F[B-](F)(F)F	2.38
C=CCCCC [hex-1-ene] + CCCCCCCC[n+]1ccn(C)c1.F[B-](F)(F)F	7.06
C=CCCCCCCCC [1-decene] + CCCCCCCC[n+]1ccn(C)c1.F[B-](F)(F)F	21.4
CO [methanol] + CCCCCCCC[n+]1ccn(C)c1.F[B-](F)(F)F	1.07
CCCCO [butan-1-ol] + CCCCCCCC[n+]1ccn(C)c1.F[B-](F)(F)F	2.32
CCCCCCCC [octane] + CCCCCCCC[n+]1ccn(C)c1.F[B-](F)(F)F	22
C=CCCCCCCC [1-nonene] + CCCCCCCC[n+]1ccn(C)c1.F[B-](F)(F)F	16.5
